{"columns": ["RECORD SMILES", "melting point"],
 "data": [
  ["COC(=O)c1c(C)nc(-c2ccccc2)c2c1C(=O)C=C(Nc1ccccc1)C2=O", "169.9 to 171.4 °C"],
  ["COC(=O)c1c(C)nc(-c2ccco2)c2c1C(=O)C=C(Nc1ccc(OC)cc1)C2=O", "144 to 146 °C"],
  ["COC(=O)c1c(C)nc(-c2ccco2)c2c1C(=O)C=C(Nc1ccccc1)C2=O", "248 to 249 °C"],
  ["COC(=O)c1c(C)nc(-c2cccs2)c2c1C(=O)C=CC2=O", "140 to 142.5 °C"],
  ["CC(=O)c1c(C)ncc2c1C(=O)C=C(Nc1ccccc1)C2=O", "178 to 180 °C"]
]}

---

Recorded −E^I1/2 for the following molecules
assay: Cyclic voltammetry, first half-wave potential; format: physicochemical; details: sign inverted; acetonitrile, Pt electrode, 0.1 M tetraethylammonium tetrafluoroborate, vs non-aqueous Ag/Ag+, sweep rate 100 mV s^−1

{"columns": ["RECORD SMILES", "−E^I1/2"],
 "data": [
  ["COC(=O)c1c(C)ncc2c1C(=O)C=C(Nc1ccccc1)C2=O", "563 mV"],
  ["COC(=O)c1c(C)nc(-c2cccs2)c2c1C(=O)C=CC2=O", "392 mV"],
  ["CC(=O)c1c(C)ncc2c1C(=O)C=CC2=O", "344 mV"],
  ["CC(=O)c1c(C)ncc2c1C(=O)C=C(Nc1ccccc1)C2=O", "464 mV"],
  ["CC(=O)c1c(C)nc(-c2ccccc2)c2c1C(=O)C=CC2=O", "416 mV"],
  ["COc1ccc(NC2=CC(=O)c3c(C(C)=O)c(C)nc(-c4cccs4)c3C2=O)cc1", "576 mV"],
  ["COC(=O)c1c(C)nc(-c2cccs2)c2c1C(=O)C=C(Nc1ccc(OC)cc1)C2=O", "583 mV"],
  ["COC(=O)c1c(C)nc(-c2cccs2)c2c1C(=O)C=C(Nc1ccccc1)C2=O", "565 mV"],
  ["CC(=O)c1c(C)nc(-c2cccs2)c2c1C(=O)C=C(Nc1ccccc1)C2=O", "576 mV"]
]}

---

Recorded −E^I1/2 for the following compounds
assay: Cyclic voltammetry, first half-wave potential; type: physicochemical; settings: sign inverted; acetonitrile, Pt electrode, 0.1 M tetraethylammonium tetrafluoroborate, vs non-aqueous Ag/Ag+, sweep rate 100 mV s^−1

{"columns": ["COMPOUND", "−E^I1/2 / mV"],
 "data": [
  ["CC(=O)c1c(C)nc(-c2cccs2)c2c1C(=O)C=CC2=O [4c]", 430],
  ["COC(=O)c1c(C)nc(-c2ccco2)c2c1C(=O)C=C(Nc1ccccc1)C2=O [5g]", 554],
  ["COC(=O)c1c(C)ncc2c1C(=O)C=C(Nc1ccc(OC)cc1)C2=O [5b]", 551],
  ["CC(=O)c1c(C)nc(-c2ccco2)c2c1C(=O)C=CC2=O [4d]", 384]
]}

---

Recorded −E^I1/2 for the following molecules
assay: Cyclic voltammetry, first half-wave potential; assay type: physicochemical; conditions: sign inverted; acetonitrile, Pt electrode, 0.1 M tetraethylammonium tetrafluoroborate, vs non-aqueous Ag/Ag+, sweep rate 100 mV s^−1

{"columns": ["RECORD SMILES", "−E^I1/2 [mV]"],
 "data": [
  ["COc1ccc(NC2=CC(=O)c3c(C(C)=O)c(C)nc(-c4ccccc4)c3C2=O)cc1", 570],
  ["CC(=O)c1c(C)nc(-c2ccccc2)c2c1C(=O)C=C(Nc1ccccc1)C2=O", 588],
  ["COC(=O)c1c(C)nc(-c2ccccc2)c2c1C(=O)C=CC2=O", 399],
  ["COC(=O)c1c(C)nc(-c2ccco2)c2c1C(=O)C=C(Nc1ccc(OC)cc1)C2=O", 577],
  ["CC(=O)c1c(C)nc(-c2ccco2)c2c1C(=O)C=C(Nc1ccccc1)C2=O", 533],
  ["COC(=O)c1c(C)ncc2c1C(=O)C=CC2=O", 352],
  ["COC(=O)c1c(C)nc(-c2ccccc2)c2c1C(=O)C=C(Nc1ccc(OC)cc1)C2=O", 583],
  ["COC(=O)c1c(C)nc(-c2ccccc2)c2c1C(=O)C=C(Nc1ccccc1)C2=O", 560],
  ["COC(=O)c1c(C)nc(-c2ccco2)c2c1C(=O)C=CC2=O", 415]
]}

---

Recorded melting point for the following molecules

{"columns": ["RECORD SMILES", "melting point"],
 "data": [
  ["COc1ccc(NC2=CC(=O)c3c(C(C)=O)c(C)nc(-c4cccs4)c3C2=O)cc1", "188.5 to 190 °C"],
  ["COC(=O)c1c(C)nc(-c2cccs2)c2c1C(=O)C=C(Nc1ccccc1)C2=O", "163.3 to 165.3 °C"],
  ["CC(=O)c1c(C)nc(-c2ccco2)c2c1C(=O)C=CC2=O", "159 to 160 °C"],
  ["CC(=O)c1c(C)nc(-c2cccs2)c2c1C(=O)C=C(Nc1ccccc1)C2=O", "93.5 to 94.5 °C"],
  ["CC(=O)c1c(C)nc(-c2ccccc2)c2c1C(=O)C=C(Nc1ccccc1)C2=O", "181.5 to 183 °C"],
  ["CC(=O)c1c(C)ncc2c1C(=O)C=CC2=O", "146 to 148 °C"],
  ["COc1ccc(NC2=CC(=O)c3c(C(C)=O)c(C)nc(-c4ccccc4)c3C2=O)cc1", "162 to 163 °C"],
  ["CC(=O)c1c(C)nc(-c2cccs2)c2c1C(=O)C=CC2=O", "161.5 to 163 °C"],
  ["COC(=O)c1c(C)nc(-c2ccccc2)c2c1C(=O)C=C(Nc1ccc(OC)cc1)C2=O", "202 to 203.5 °C"]
]}

---

{"columns": ["RECORD SMILES", "melting point"],
 "data": [
  ["CC(=O)c1c(C)nc(-c2ccccc2)c2c1C(=O)C=CC2=O", "162.5 to 164 °C"],
  ["CC(=O)c1c(C)nc(-c2ccco2)c2c1C(=O)C=C(Nc1ccccc1)C2=O", "187 to 188.5 °C"],
  ["COC(=O)c1c(C)nc(-c2cccs2)c2c1C(=O)C=C(Nc1ccc(OC)cc1)C2=O", "214 to 216 °C"],
  ["COC(=O)c1c(C)nc(-c2ccccc2)c2c1C(=O)C=CC2=O", "175 to 176.5 °C"],
  ["COC(=O)c1c(C)nc(-c2ccco2)c2c1C(=O)C=CC2=O", "159.5 to 160.5 °C"]
]}
